Data origin: ChEMBL document CHEMBL1944593

- test-system: Nitric oxide sythases; iNOS & nNOS (Homo sapiens) (UniProt P29475+P35228)
- Sequence (P29475 whole entry, looked up): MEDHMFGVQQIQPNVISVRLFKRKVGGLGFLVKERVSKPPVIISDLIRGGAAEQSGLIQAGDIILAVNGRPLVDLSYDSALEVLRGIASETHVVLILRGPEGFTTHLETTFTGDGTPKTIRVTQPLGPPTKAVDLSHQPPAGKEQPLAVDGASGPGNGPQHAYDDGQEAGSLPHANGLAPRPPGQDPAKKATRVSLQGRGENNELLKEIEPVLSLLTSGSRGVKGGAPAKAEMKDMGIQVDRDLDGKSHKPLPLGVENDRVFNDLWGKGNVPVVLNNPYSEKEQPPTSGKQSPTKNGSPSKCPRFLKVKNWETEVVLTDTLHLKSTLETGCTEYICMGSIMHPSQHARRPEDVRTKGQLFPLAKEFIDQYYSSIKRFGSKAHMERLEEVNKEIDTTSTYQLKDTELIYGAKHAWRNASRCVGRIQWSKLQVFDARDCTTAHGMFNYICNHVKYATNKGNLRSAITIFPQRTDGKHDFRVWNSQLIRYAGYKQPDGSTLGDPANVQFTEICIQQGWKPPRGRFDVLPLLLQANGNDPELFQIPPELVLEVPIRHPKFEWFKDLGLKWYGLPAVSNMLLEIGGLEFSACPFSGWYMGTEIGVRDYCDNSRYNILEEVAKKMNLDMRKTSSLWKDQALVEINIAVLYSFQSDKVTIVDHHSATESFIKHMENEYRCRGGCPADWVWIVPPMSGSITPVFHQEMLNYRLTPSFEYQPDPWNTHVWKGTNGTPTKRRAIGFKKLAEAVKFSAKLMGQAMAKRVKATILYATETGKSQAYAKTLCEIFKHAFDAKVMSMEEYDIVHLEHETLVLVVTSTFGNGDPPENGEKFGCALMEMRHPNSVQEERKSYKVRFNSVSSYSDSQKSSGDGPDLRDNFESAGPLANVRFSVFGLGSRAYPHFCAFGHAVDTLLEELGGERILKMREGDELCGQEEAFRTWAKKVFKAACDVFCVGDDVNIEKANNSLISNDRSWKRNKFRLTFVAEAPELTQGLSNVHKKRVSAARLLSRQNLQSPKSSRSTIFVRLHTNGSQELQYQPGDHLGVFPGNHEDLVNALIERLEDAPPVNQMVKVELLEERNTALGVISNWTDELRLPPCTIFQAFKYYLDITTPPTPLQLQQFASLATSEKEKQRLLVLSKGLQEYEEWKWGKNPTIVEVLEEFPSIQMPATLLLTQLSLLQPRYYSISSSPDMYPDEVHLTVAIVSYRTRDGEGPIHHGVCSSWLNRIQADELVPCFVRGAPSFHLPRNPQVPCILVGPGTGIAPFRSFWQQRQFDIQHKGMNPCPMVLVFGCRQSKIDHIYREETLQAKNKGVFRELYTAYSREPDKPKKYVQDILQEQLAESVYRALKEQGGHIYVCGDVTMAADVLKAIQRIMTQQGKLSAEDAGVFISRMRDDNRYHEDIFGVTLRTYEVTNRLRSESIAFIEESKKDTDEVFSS
- Sequence (P35228 whole entry, looked up): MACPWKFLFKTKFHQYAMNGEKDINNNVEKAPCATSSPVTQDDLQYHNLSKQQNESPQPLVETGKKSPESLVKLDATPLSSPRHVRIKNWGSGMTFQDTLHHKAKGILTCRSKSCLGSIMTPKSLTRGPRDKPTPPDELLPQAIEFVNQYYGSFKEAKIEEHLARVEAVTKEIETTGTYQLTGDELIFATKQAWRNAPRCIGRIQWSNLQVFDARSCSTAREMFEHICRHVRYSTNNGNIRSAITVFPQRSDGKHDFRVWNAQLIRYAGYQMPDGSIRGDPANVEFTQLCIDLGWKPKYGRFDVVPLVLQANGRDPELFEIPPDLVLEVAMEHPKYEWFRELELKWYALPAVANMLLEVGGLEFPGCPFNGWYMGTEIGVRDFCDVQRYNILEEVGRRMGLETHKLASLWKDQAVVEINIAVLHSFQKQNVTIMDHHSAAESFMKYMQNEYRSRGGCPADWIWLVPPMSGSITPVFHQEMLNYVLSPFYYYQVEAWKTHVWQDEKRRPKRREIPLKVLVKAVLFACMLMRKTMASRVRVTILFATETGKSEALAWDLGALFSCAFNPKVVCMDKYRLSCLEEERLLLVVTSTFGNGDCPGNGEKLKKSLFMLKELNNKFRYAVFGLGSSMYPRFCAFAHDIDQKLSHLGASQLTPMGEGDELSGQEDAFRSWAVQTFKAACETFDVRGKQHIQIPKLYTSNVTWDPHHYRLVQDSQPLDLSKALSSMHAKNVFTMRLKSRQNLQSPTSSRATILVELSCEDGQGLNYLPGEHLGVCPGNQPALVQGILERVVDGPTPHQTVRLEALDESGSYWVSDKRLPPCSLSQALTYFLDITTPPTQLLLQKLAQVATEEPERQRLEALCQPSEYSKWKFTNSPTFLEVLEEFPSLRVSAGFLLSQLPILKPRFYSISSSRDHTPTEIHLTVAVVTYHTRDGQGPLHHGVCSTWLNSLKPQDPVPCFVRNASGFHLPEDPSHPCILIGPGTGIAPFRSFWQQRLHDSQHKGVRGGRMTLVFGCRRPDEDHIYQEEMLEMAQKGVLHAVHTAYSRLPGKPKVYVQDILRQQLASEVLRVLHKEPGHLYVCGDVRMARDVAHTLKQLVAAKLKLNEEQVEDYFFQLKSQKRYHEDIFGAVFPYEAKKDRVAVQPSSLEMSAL
- protocol: Selectivity ratio of IC50 for human nNOS to IC50 for human iNOS

{"entry-smiles": "O=c1cc(CN(c2cccc(Cl)c2)c2cnccn2)c2ccc(F)c(F)c2[nH]1", "Ratio IC50": 2}
{"entry-smiles": "COc1cc(N(Cc2cc(=O)[nH]c3c(F)c(F)ccc23)c2cccc(Cl)c2)ncn1", "Ratio IC50": 2}
{"entry-smiles": "O=c1cc(CN(Cc2ccccn2)c2cnccn2)c2ccc(F)c(F)c2[nH]1", "Ratio IC50": 6}
{"entry-smiles": "O=c1cc(CN(Cc2ccccc2)c2cnccn2)c2ccc(F)c(F)c2[nH]1", "Ratio IC50": 8}
{"entry-smiles": "O=c1cc(CN(Cc2ccc(Cl)cc2)c2cnccn2)c2ccc(F)c(F)c2[nH]1", "Ratio IC50": 2}
{"entry-smiles": "O=c1cc(CN(c2cccc(Cl)c2)c2ccccn2)c2ccc(F)c(F)c2[nH]1", "Ratio IC50": 5}
{"entry-smiles": "O=c1cc(CN(Cc2cccc(Cl)c2)c2cnccn2)c2ccc(F)c(F)c2[nH]1", "Ratio IC50": 2}
{"entry-smiles": "Cc1cc(N(Cc2cc(=O)[nH]c3c(F)c(F)ccc23)c2cccc(Cl)c2)ncn1", "Ratio IC50": 3}
{"entry-smiles": "O=c1cc(CN(c2cccc(Cl)c2)c2cccnn2)c2ccc(F)c(F)c2[nH]1", "Ratio IC50": 8}
{"entry-smiles": "Cc1nccc(N(Cc2cc(=O)[nH]c3c(F)c(F)ccc23)c2cccc(Cl)c2)n1", "Ratio IC50": 7}

----------
- Organism: Homo sapiens
- protocol: Selectivity ratio of IC50 for human eNOS to IC50 for human iNOS
Values of Ratio IC50 greater than or equal to 100 map to Yes; values below map to No.

{"entry-smiles": "O=c1cc(CN(c2cccc(Cl)c2)c2ccncn2)c2ccc(F)c(F)c2[nH]1", "label": "Yes"}
{"entry-smiles": "O=c1cc(CN(c2ccncc2)c2cccc(Cl)c2)c2ccc(F)c(F)c2[nH]1", "label": "Yes"}
{"entry-smiles": "Cc1nccc(N(Cc2cc(=O)[nH]c3c(F)c(F)ccc23)c2cccc(Cl)c2)n1", "label": "Yes"}
{"entry-smiles": "O=c1cc(CN(Cc2cccc(Cl)c2)c2cnccn2)c2ccc(F)c(F)c2[nH]1", "label": "No"}
{"entry-smiles": "O=c1cc(CN(Cc2ccc(Cl)cc2)c2cnccn2)c2ccc(F)c(F)c2[nH]1", "label": "No"}
{"entry-smiles": "Cc1cc(N(Cc2cc(=O)[nH]c3c(F)c(F)ccc23)c2cccc(Cl)c2)ncn1", "label": "Yes"}
{"entry-smiles": "[O-][n+]1cc(CN(c2cccc(Cl)c2)c2ncccn2)c2ccc(F)c(F)c2c1", "label": "Yes"}
{"entry-smiles": "O=c1cc(CN(Cc2ccccn2)c2cnccn2)c2ccc(F)c(F)c2[nH]1", "label": "Yes"}

----------
- test-system: Nitric oxide synthase 1 (Homo sapiens, UniProt P29475)
- Sequence (P29475 whole entry): as the sequence (P29475 whole entry, looked up) above
- protocol: Inhibition of human nNOS expressed in HEK293 cells assessed as NO production by 2,3-diaminonapthalene-based fluorescence assay
Mark met only for IC50 values smaller than 100 nM; exact matches and larger values are not met.

{"entry-smiles": "COc1cc(N(Cc2cc(=O)[nH]c3c(F)c(F)ccc23)c2cccc(Cl)c2)ncn1", "label": "not met"}
{"entry-smiles": "O=c1cc(CN(Cc2cccc(Cl)c2)c2cnccn2)c2ccc(F)c(F)c2[nH]1", "label": "not met"}
{"entry-smiles": "Cn1ncc2c(N(Cc3cc(=O)[nH]c4c(F)c(F)ccc34)c3cccc(Cl)c3)ncnc21", "label": "met"}
{"entry-smiles": "O=c1cc(CN(c2ccncc2)c2cccc(Cl)c2)c2ccc(F)c(F)c2[nH]1", "label": "not met"}
{"entry-smiles": "O=c1cc(CN(c2cccc(Cl)c2)c2ccncn2)c2ccc(F)c(F)c2[nH]1", "label": "not met"}
{"entry-smiles": "O=c1cc(CN(c2cccnc2)c2cccc(Cl)c2)c2ccc(F)c(F)c2[nH]1", "label": "not met"}
{"entry-smiles": "O=c1cc(CN(Cc2ccccn2)c2cnccn2)c2ccc(F)c(F)c2[nH]1", "label": "not met"}
{"entry-smiles": "O=c1cc(CN(c2cccc(Cl)c2)c2ncccn2)c2ccc(F)c(F)c2[nH]1", "label": "met"}
{"entry-smiles": "O=c1cc(CN(c2cccc(Cl)c2)c2ccccn2)c2ccc(F)c(F)c2[nH]1", "label": "not met"}
{"entry-smiles": "Cc1cc(N(Cc2cc(=O)[nH]c3c(F)c(F)ccc23)c2cccc(Cl)c2)ncn1", "label": "not met"}
{"entry-smiles": "Cc1nccc(N(Cc2cc(=O)[nH]c3c(F)c(F)ccc23)c2cccc(Cl)c2)n1", "label": "not met"}
{"entry-smiles": "O=c1cc(CN(Cc2ccccc2Cl)c2cnccn2)c2ccc(F)c(F)c2[nH]1", "label": "met"}
{"entry-smiles": "O=c1cc(CN(c2cccc(Cl)c2)c2cccnn2)c2ccc(F)c(F)c2[nH]1", "label": "not met"}
{"entry-smiles": "O=c1cc(CN(Cc2ccc(Cl)cc2)c2cnccn2)c2ccc(F)c(F)c2[nH]1", "label": "not met"}
{"entry-smiles": "O=c1cc(CN(Cc2ccccc2F)c2cnccn2)c2ccc(F)c(F)c2[nH]1", "label": "met"}
{"entry-smiles": "O=c1cc(CN(c2cccc(Cl)c2)c2cnccn2)c2ccc(F)c(F)c2[nH]1", "label": "met"}
{"entry-smiles": "CN(C)c1cc(N(Cc2cc(=O)[nH]c3c(F)c(F)ccc23)c2cccc(Cl)c2)ncn1", "label": "not met"}
{"entry-smiles": "O=c1cc(CN(c2cncnc2)c2cccc(Cl)c2)c2ccc(F)c(F)c2[nH]1", "label": "not met"}
{"entry-smiles": "Cc1ccccc1CN(Cc1cc(=O)[nH]c2c(F)c(F)ccc12)c1cnccn1", "label": "met"}

----------
- Species on record: Homo sapiens
- protocol: Selectivity ratio of IC50 for human eNOS to IC50 for human iNOS

{"entry-smiles": "O=c1cc(CN(c2cccnc2)c2cccc(Cl)c2)c2ccc(F)c(F)c2[nH]1", "operator-symbol": "=", "Ratio IC50": 180}
{"entry-smiles": "Fc1ccc2c(CN(c3cccc(Cl)c3)c3ncccn3)cncc2c1F", "operator-symbol": ">", "Ratio IC50": 1000}
{"entry-smiles": "O=c1cc(CN(c2cccc(Cl)c2)c2ncccn2)c2ccc(F)c(F)c2[nH]1", "operator-symbol": "=", "Ratio IC50": 425}
{"entry-smiles": "O=c1cc(CN(c2cccc(Cl)c2)c2cccnn2)c2ccc(F)c(F)c2[nH]1", "operator-symbol": "=", "Ratio IC50": 500}
{"entry-smiles": "O=c1cc(CN(Cc2ccccc2F)c2cnccn2)c2ccc(F)c(F)c2[nH]1", "operator-symbol": "=", "Ratio IC50": 900}
{"entry-smiles": "O=c1cc(CN(c2cccc(Cl)c2)c2cnccn2)c2ccc(F)c(F)c2[nH]1", "operator-symbol": "=", "Ratio IC50": 300}
{"entry-smiles": "Cn1ncc2c(N(Cc3cc(=O)[nH]c4c(F)c(F)ccc34)c3cccc(Cl)c3)ncnc21", "operator-symbol": "=", "Ratio IC50": 730}
{"entry-smiles": "O=c1cc(CN(c2ccccc2)c2cccc(Cl)c2)c2ccc(F)c(F)c2[nH]1", "operator-symbol": ">", "Ratio IC50": 20}
{"entry-smiles": "O=c1cc(CN(c2cncnc2)c2cccc(Cl)c2)c2ccc(F)c(F)c2[nH]1", "operator-symbol": "=", "Ratio IC50": 375}
{"entry-smiles": "Cc1ccccc1CN(Cc1cc(=O)[nH]c2c(F)c(F)ccc12)c1cnccn1", "operator-symbol": "=", "Ratio IC50": 1300}

----------
- Organism: Homo sapiens
- protocol: Selectivity ratio of IC50 for human eNOS to IC50 for human iNOS

{"entry-smiles": "COc1cc(N(Cc2cc(=O)[nH]c3c(F)c(F)ccc23)c2cccc(Cl)c2)ncn1", "Ratio IC50": "> 500"}
{"entry-smiles": "CN(C)c1cc(N(Cc2cc(=O)[nH]c3c(F)c(F)ccc23)c2cccc(Cl)c2)ncn1", "Ratio IC50": "> 1000"}
{"entry-smiles": "O=c1cc(CN(c2cccc(Cl)c2)c2ccccn2)c2ccc(F)c(F)c2[nH]1", "Ratio IC50": "> 1000"}

----------
- test-system: Nitric oxide synthase 3 (Homo sapiens)
- Sequence (P29474 whole entry): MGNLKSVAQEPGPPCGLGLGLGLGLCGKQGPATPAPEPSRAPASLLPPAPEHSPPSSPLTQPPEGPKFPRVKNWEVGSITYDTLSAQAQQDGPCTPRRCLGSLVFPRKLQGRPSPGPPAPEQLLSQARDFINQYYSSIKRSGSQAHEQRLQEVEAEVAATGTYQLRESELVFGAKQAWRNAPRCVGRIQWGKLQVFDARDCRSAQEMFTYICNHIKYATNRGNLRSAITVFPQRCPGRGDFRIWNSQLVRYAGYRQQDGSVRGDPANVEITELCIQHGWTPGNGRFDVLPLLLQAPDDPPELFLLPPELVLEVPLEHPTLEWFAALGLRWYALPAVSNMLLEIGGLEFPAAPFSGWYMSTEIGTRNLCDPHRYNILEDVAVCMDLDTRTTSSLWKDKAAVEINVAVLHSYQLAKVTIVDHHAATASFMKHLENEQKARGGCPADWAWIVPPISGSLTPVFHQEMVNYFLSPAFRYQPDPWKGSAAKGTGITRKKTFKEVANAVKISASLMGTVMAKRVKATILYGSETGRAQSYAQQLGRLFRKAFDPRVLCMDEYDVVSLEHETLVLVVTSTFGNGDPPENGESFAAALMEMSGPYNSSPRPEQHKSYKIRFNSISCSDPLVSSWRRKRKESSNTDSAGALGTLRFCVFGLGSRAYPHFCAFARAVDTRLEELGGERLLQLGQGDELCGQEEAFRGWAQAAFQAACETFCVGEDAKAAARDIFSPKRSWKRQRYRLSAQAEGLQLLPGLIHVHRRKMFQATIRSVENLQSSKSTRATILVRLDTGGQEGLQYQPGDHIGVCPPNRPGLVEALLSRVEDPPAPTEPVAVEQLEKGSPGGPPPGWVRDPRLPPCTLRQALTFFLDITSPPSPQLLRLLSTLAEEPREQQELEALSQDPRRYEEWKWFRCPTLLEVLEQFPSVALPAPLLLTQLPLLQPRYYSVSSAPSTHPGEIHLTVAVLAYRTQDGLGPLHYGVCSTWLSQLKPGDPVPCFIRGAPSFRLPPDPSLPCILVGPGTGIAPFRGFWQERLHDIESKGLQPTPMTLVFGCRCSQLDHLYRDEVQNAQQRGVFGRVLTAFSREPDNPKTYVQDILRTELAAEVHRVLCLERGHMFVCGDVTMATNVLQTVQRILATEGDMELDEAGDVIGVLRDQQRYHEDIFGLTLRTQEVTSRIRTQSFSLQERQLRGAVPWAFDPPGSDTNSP
- protocol: Inhibition of human eNOS expressed in HEK293 cells assessed as NO production by 2,3-diaminonapthalene-based fluorescence assay
reported-endpoint: IC50 (µM)

{"entry-smiles": "O=c1cc(CN(Cc2ccccn2)c2cnccn2)c2ccc(F)c(F)c2[nH]1", "readout-value": 11}
{"entry-smiles": "Cc1nccc(N(Cc2cc(=O)[nH]c3c(F)c(F)ccc23)c2cccc(Cl)c2)n1", "readout-value": 7.5}
{"entry-smiles": "Cn1ncc2c(N(Cc3cc(=O)[nH]c4c(F)c(F)ccc34)c3cccc(Cl)c3)ncnc21", "readout-value": 8.3}
{"entry-smiles": "Cc1ccccc1CN(Cc1cc(=O)[nH]c2c(F)c(F)ccc12)c1cnccn1", "readout-value": 13}
